# Tested system: SARS-CoV-2 3CLpro (Severe acute respiratory syndrome coronavirus 2)
# Protocol details: biochemical
The reader will find reported pIC50 values listed item by item below.
The scale used: pIC50 is minus the common logarithm of the concentration in molar units.

Compound | Readout name | Observed measurement
CC[C@@H](C)[C@H](NC(=O)C1CC1(F)F)C(=O)N1C[C@H]2[C@@H]([C@H]1C(=O)NN(C[C@@H]1CCNC1=O)C(=O)[C@H](F)Cl)C2(C)C (mixture of isomers) | pIC50 | 8.00

Look up pIC50 with SARS-CoV-2 3CLpro (Severe acute respiratory syndrome coronavirus 2) for this compound: `CCC(C)(C)[C@H](NC(=O)C(F)F)C(=O)N1C[C@H]2[C@@H]([C@H]1C(=O)NN(C[C@@H]1CCNC1=O)C(=O)[C@H](F)Cl)C2(C)C`
7.96

Next compound: `CC[C@H](C)[C@H](NC(=O)C(C)(F)F)C(=O)N1C[C@@H]2CCC[C@@H]2[C@H]1C(=O)NN(C[C@@H]1CCNC1=O)C(=O)[C@H](F)Cl`
7.68

Another compound: `CC(C)(C)[C@H](NC(=O)[C@@H]1CC1(F)F)C(=O)N1C[C@@H]2CCC[C@@H]2[C@H]1C(=O)NN(C[C@@H]1CCNC1=O)C(=O)[C@H](F)Cl`
8.10

Okay, and `CC[C@H](C)[C@H](NC(=O)[C@H](F)Cl)C(=O)N1C[C@H]2[C@@H]([C@H]1C(=O)NN(C[C@H]1CCCNC1=O)C(=O)[C@H](F)Cl)C2(C)C` ?
7.82

Then `CC(C)(C)C[C@H](NC(=O)C1(F)CC1)C(=O)N1C[C@H]2[C@@H]([C@H]1C(=O)NN(C[C@@H]1CCNC1=O)C(=O)[C@H](F)Cl)C2(C)C` ?
7.92

// repeat for `CC(C)(F)C(=O)N[C@H](C(=O)N1C[C@@H]2CCC[C@@H]2[C@H]1C(=O)NN(C[C@@H]1CCNC1=O)C(=O)[C@H](F)Cl)C(C)(C)C` and report
8.10

Moving on to the next compound: `CC[C@H](C)[C@H](NC(=O)C1CC(F)(F)C1)C(=O)N1C[C@H]2[C@@H]([C@H]1C(=O)NN(C[C@@H]1CCNC1=O)C(=O)[C@H](F)Cl)C2(C)C`
7.96

And for CCC(C)(C)[C@H](NC(=O)C(C)F)C(=O)N1C[C@H]2[C@@H]([C@H]1C(=O)NN(C[C@@H]1CCNC1=O)C(=O)[C@@H](F)Cl)C2(C)C (mixture of isomers) ?
7.80

Item: `CC[C@H](C)[C@H](NC(=O)C(Cl)Cl)C(=O)N1C[C@@H]2CCC[C@@H]2[C@H]1C(=O)NN(C[C@@H]1CCNC1=O)C(=O)[C@H](F)Cl`
8.15
